Test system: HCC-2998 colon
Procedure Details: NCI-60 one-dose screen, 48 h (100 = growth as untreated, 0 = no growth, -100 = all killed)
Measurement Context: 10 µM unless noted
This is part of a sample that, as a whole, favours compounds with a hit. Of some 83,000 tested, about 20% had one in any assay.
Hi, to clarify the labels: y covers growth from 90% upward, n covers anything below 90%.

COc1ccc(C(O)c2cc3c(N)c(C(=O)Nc4ccc(Cl)cc4)sc3nc2C)cc1 (centres undefined) : n
O=C1CCCCCCCCC(O)C(O)CCCC(c2cccs2)O1 (centres undefined) : y
Cc1cccc(Oc2ccc(Nc3ncnc4ccc(NC(=O)CN(C)C)cc34)cc2Cl)c1 : n

Input line: Please indicate if the recorded growth for CC(=O)c1c[nH]c2ccc(-c3ccnc(Nc4ccc(NC(=O)C5CCCC5)c(CN5CCOCC5)c4)n3)cc12 meets or exceeds 90%.
Output line: n

Input line: Please indicate if the recorded growth for NC(=O)c1ncn(C2OC(CO)C(O)C2O)n1 (centres undefined) meets or exceeds 90%.
Output line: y

Input line: Please indicate if the recorded growth for O=S(=O)(NCCCNc1nccc(-c2c(-c3cccc(O)c3)nc3occn23)n1)c1ccc(Br)cc1 meets or exceeds 90%.
Output line: y

Input line: Please indicate if the recorded growth for Nc1nc(SN=Nc2ccc(S(N)(=O)=O)cc2)c2[nH]cnc2n1 meets or exceeds 90%.
Output line: n

Input line: Please indicate if the recorded growth for COC(=O)C1=C(C(=O)ONCCN(C)C)C2C=CC1(C(Cc1ccccc1)Nc1ccc(F)cc1)O2 (centres undefined) meets or exceeds 90%.
Output line: y
